Source listed as patent US6890920B2.

assay: Pharmacokinetics of inhaled quaternary ammonium salts, plasma levels; format: in vivo, Balb/c mice; conditions: Balb/c, mouse, plasma, inhaled; inhalation of 0.144 mg/ml, 2 h; read-out: Plasma concentration ± std dev
ENDPOINT: concentration at 2 h (ng/mL)
Supply the numeric figure in ng/mL, leaving out any unit text.

Request the reported concentration at 2 h associated with Cc1ccc(O)c([C@H](CC[N+](C)(C(C)C)C(C)C)c2ccccc2)c1.[I-] [Example 2]
0.055

----------
target: muscarinic receptor M4 (Homo sapiens, UniProt P08173); construct: expressed in transfected cells; assay: Muscarinic receptor subtype M4 binding assay, radioligand displacement
Sequence (P08173 whole entry): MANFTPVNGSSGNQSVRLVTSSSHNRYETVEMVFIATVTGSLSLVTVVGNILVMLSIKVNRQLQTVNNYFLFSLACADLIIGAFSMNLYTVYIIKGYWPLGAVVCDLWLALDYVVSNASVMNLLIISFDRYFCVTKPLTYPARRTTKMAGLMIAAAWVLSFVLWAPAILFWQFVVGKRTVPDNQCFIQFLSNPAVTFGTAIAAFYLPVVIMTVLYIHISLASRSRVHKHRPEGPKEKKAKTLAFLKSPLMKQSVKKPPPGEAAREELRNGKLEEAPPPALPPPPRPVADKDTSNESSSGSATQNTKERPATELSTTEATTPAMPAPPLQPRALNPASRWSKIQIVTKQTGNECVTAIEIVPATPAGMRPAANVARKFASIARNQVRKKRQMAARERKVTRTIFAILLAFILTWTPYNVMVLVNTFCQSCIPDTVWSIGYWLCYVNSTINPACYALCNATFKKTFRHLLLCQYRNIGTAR
ENDPOINT: pKi
Scale for pKi: -log10 of concentration given in mol/L; no unit attached.

Could you tell me which pKi is on file for Cc1ccc(O)c([C@H](CC[N+](C)(C(C)C)C(C)C)c2ccccc2)c1.[I-] ?
9.41
